Protocol notes: blockers of RIG-like receptor reporter activation – cell-based, Sendai virus stimulus, luciferase, 10K MLSCN set, TLR/RLR signaling modifier project, primary screen (AID 602276);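 also: firefly luciferase from ISG56 promoter only with Renilla not read in this screen; 0% = Sendai virus plus DMSO and 100% = medium plus DMSO without virus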
Assay context: HEK293 RL24 IRF3 luciferase reporter, at 10 µM, hits give high values
Quantity kind: inhibition (%)
Output spec: scalar in %, unitless text.

[Q] Note down inhibition recorded for CCOC(=O)N1CCN(C(=O)CN(C2CCCCC2)S(=O)(=O)c2ccc(F)cc2)CC1
[A] 21.5

[Q] Note down inhibition recorded for O=C(Nc1nc(-c2ccc(S(=O)(=O)N3CCCCCC3)cc2)cs1)c1cccs1
[A] 10.4

[Q] Note down inhibition recorded for CC(NO)C(C)(C)NO (configuration not stated)
[A] 3.35

[Q] Note down inhibition recorded for CC(CC(=O)NCc1ccccc1)C1CCCO1 (configuration not stated)
[A] -2.84

[Q] Note down inhibition recorded for CCOC(OCC)P(=O)(C(C)C)C(C)C
[A] 17.5

[Q] Note down inhibition recorded for Cc1ccc(-n2ncc3c(=O)n(CC(=O)NC4CCCCC4)cnc32)cc1C
[A] 13.5

[Q] Note down inhibition recorded for COc1ccccc1NC(=O)N(Cc1ccco1)Cc1cc2c(C)ccc(C)c2[nH]c1=O
[A] 12.5

[Q] Note down inhibition recorded for COc1ccc(NC(=O)CSc2ccccn2)cc1OC
[A] -19.5

[Q] Note down inhibition recorded for Cc1ccc(NC(=O)COc2nc(C)cs2)cc1
[A] 6.37

[Q] Note down inhibition recorded for COc1ccc(-c2nnc(SCc3nnc(-c4ccc(Cl)cc4)o3)n2-c2ccccc2)cc1
[A] -45

[Q] Note down inhibition recorded for CCCOC(=O)/C(C(N)=NCc1ccccc1)=C(\O)OCCC
[A] -11.7

[Q] Note down inhibition recorded for O=C1OCCC1Sc1ncnc2sccc12 (configuration not stated)
[A] 9.26

[Q] Note down inhibition recorded for COC(=O)c1ccc(C2C(C#N)=C(N)Oc3cc(C)n(C)c(=O)c32)cc1 (configuration not stated)
[A] 9.77

[Q] Note down inhibition recorded for CCCCn1c(CN(C)Cc2ccccc2)nc2c1c(=O)n(C)c(=O)n2C
[A] -18.7

[Q] Note down inhibition recorded for COc1cccc(C2CC(c3ccccc3)n3ncnc3N2)c1 (configuration not stated)
[A] 5.93

[Q] Note down inhibition recorded for O=C(CN1CCN(C2CCCCC2)CC1)Nc1ccccc1-c1ccccc1
[A] 2.95

[Q] Note down inhibition recorded for Cc1ccc2c(c1)sc1ncc(NC(=O)c3ccccc3)c(=O)n12
[A] -16.1

###

Tested on: Voltage-gated potassium channel subunit beta-2 (Rattus norvegicus) (UniProt P62483)
Sequence (P62483 whole entry, looked up): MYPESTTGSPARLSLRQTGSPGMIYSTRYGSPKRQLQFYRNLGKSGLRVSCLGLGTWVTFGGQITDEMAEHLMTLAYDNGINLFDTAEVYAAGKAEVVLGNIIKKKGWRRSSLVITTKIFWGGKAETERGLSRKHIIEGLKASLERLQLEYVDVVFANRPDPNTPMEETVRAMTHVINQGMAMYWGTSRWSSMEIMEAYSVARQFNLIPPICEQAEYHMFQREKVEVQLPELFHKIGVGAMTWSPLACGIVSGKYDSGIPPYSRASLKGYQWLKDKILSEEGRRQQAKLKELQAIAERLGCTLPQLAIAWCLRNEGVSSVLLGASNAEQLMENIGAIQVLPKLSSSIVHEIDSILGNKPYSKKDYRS
Protocol notes: inhibitors of rat Kvbeta2 reductase activity – biochemical, NADPH fluorescence, primary screen (AID 622);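 also: slope of raw intensity against log time taken from 70 to 1610 s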
Assay context: recombinant KvBeta, 4-cyanobenzaldehyde reduction, at 10 µM, hits give high values
Quantity kind: fluorescence slope
Give the figure only, with no unit attached.

[Q] Note down fluorescence slope recorded for O=S(=O)(NCCc1ccncc1)c1cc(Br)ccc1F
[A] -0.626

[Q] Note down fluorescence slope recorded for COC(=O)c1ccc(Oc2nc(NC(C)C)nc(N(C)C)n2)cc1
[A] -0.468

[Q] Note down fluorescence slope recorded for CC(C)(C)c1ccc(OCC(=O)O)cc1
[A] -0.599

[Q] Note down fluorescence slope recorded for COc1ccc(N2CCN(c3ncnc4c3cnn4-c3ccc(C)cc3C)CC2)cc1
[A] -0.558

[Q] Note down fluorescence slope recorded for O=S(=O)(NCc1ccco1)c1cccc2cccnc12
[A] -0.551

[Q] Note down fluorescence slope recorded for O=C(c1ccc(Cl)cc1)N1CCCOC1
[A] -0.32

[Q] Note down fluorescence slope recorded for CC(=O)c1c(O)cc(C)n(Nc2nc(C)cc(C)n2)c1=O
[A] -0.343

[Q] Note down fluorescence slope recorded for CCN1CCN(S(=O)(=O)c2ccc(S(=O)(=O)N(CC)Cc3ccccc3)cc2)CC1
[A] -0.527

[Q] Note down fluorescence slope recorded for CS(=O)(=O)N1CCN(C(=O)c2ccc(-c3ccccc3)cc2)CC1
[A] -0.541

[Q] Note down fluorescence slope recorded for CCn1nnnc1SCC(=O)N1c2ccccc2CCc2ccccc21
[A] -0.377

###

Exercise: for every item that follows, state its recorded fluorescence slope.
Tested on: Muscarinic acetylcholine receptor M4 (Homo sapiens) (UniProt P08173)
Sequence (P08173 whole entry, looked up): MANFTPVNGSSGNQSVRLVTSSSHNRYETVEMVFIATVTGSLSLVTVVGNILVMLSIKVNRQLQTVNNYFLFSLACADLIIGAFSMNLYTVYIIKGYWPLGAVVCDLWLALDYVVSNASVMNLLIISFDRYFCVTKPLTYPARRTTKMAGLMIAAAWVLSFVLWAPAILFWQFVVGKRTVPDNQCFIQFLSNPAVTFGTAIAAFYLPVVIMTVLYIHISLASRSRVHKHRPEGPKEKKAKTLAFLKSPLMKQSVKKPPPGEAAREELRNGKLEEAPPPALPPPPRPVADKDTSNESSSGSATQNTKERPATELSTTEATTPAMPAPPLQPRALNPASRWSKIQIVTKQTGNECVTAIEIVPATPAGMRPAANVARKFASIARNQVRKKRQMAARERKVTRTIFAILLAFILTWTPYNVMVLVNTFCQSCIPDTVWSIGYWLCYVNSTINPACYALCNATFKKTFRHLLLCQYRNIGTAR
Protocol notes: M4-linked GIRK flux change, two-sided – cell-based, HEK293 M4/GIRK, thallium flux, BTC-AM, M4 allosteric agonist project, primary screen (AID 625);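 also: thallium influx through GIRK channels coupled to M4 in HEK293 cells with BTC-AM dye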
Assay context: at 10 µM, actives lie on both sides
Give the figure only, with no unit attached.

[Q] Note down fluorescence slope recorded for O=C(c1cn(-c2ccccc2)nc1-c1cccs1)N1CCN(c2ccccn2)CC1
[A] 0.00586

[Q] Note down fluorescence slope recorded for CCOC(=O)c1c(C)oc2ccc(OCC(N)=O)cc12
[A] 0.00617

[Q] Note down fluorescence slope recorded for CCC(=O)Nc1cccc(Br)c1
[A] 0.0051

[Q] Note down fluorescence slope recorded for Cc1cnc(-c2nnc(N(C)C(=O)C3CCOC3)s2)cn1 (stereo unspecified)
[A] 0.00481

[Q] Note down fluorescence slope recorded for CCOc1ccccc1C1CC(=O)NC(SCC)=C1C#N (stereo unspecified)
[A] 0.00457

[Q] Note down fluorescence slope recorded for Cc1noc(C)c1S(=O)(=O)N1CCC(C(=O)N2CCN(Cc3ccc4c(c3)OCO4)CC2)CC1
[A] 0.00556

[Q] Note down fluorescence slope recorded for C/C(Cl)=C\Cn1c(Nc2ccc(C)cc2)nc2c1c(=O)n(C)c(=O)n2C
[A] 0.00543

[Q] Note down fluorescence slope recorded for CCOC(=O)C1CCCN(C(=O)c2cc(=O)c3ccccc3o2)C1 (stereo unspecified)
[A] 0.00575

[Q] Note down fluorescence slope recorded for CCOC(=O)c1cccc(NC(=O)CSc2nc3ccccc3c(=O)n2CC)c1
[A] 0.00728

[Q] Note down fluorescence slope recorded for CC1CCN(C(=O)c2cc(-c3ccc(Cl)c(Cl)c3)on2)CC1
[A] 0.00453

[Q] Note down fluorescence slope recorded for CCCC(=O)Nc1ccccc1NC(=O)CCC
[A] 0.00516

###

Protocol notes: endothelial E-selectin expression blockers – imaging, HUVEC, immunofluorescence, MLSMR starter and 10KST1 sets, primary screen (AID 487);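 also: signal is fraction of cell area covered by stained E-selectin grains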
Assay context: HUVEC TNFalpha-induced E-selectin immunofluorescence imaging, at 2 µM; hits give high values
Response key: 1 means inhibition >= -60%; 0 means inhibition < -60%.

[Q] Is the recorded value of inhibition equal to or greater than -60% for this molecule? CCCCn1nnnc1NCc1cccs1
[A] 0

[Q] Is the recorded value of inhibition equal to or greater than -60% for this molecule? Cc1cc(-c2ccccc2)nc2cc(C(=O)NCCCn3ccnc3)nn12
[A] 0

[Q] Is the recorded value of inhibition equal to or greater than -60% for this molecule? CN1CCN(S(=O)(=O)c2ccc(Sc3nnc(-c4cccs4)n3-c3ccccc3)nc2)CC1
[A] 0

[Q] Is the recorded value of inhibition equal to or greater than -60% for this molecule? Cc1noc(C)c1C(=O)N1CCN(C(=O)c2sc3cc(Cl)ccc3c2Cl)CC1
[A] 0

[Q] Is the recorded value of inhibition equal to or greater than -60% for this molecule? CC1=C(C(=O)Nc2ccccc2C)C(c2ccc(C)o2)N2C(=O)CSC2=N1 (stereo not given)
[A] 1

[Q] Is the recorded value of inhibition equal to or greater than -60% for this molecule? O=C(CNCCC1=CCCCC1)Nc1ccccc1N1CCCCC1
[A] 0

[Q] Is the recorded value of inhibition equal to or greater than -60% for this molecule? O=C1OC(N2CCN(c3ccccn3)CC2)c2ccccc21 (stereo not given)
[A] 1

[Q] Is the recorded value of inhibition equal to or greater than -60% for this molecule? Cc1cc(C)c(C)c(S(=O)(=O)Nc2ccc(O)cc2)c1C
[A] 1

[Q] Is the recorded value of inhibition equal to or greater than -60% for this molecule? Cc1ccc2c(c1)-c1c(cnn1CC(=O)NC(C)CCc1ccco1)CO2 (stereo not given)
[A] 0

###

Tested on: Voltage-gated potassium channel subunit beta-2 (Rattus norvegicus) (UniProt P62483)
Protocol notes: inhibitors of rat Kvbeta2 reductase activity – biochemical, NADPH fluorescence, primary screen (AID 622);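 also: slope of raw intensity against log time taken from 70 to 1610 s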
Assay context: recombinant KvBeta, 4-cyanobenzaldehyde reduction, at 10 µM, hits give high values
Response key: fulfilled means fluorescence slope >= -0.5; not fulfilled means fluorescence slope < -0.5.

[Q] Is the recorded value of fluorescence slope equal to or greater than -0.5 for this molecule? COc1ccc(C(=O)NCCC(C)C)cc1S(=O)(=O)N1CCOCC1
[A] fulfilled

[Q] Is the recorded value of fluorescence slope equal to or greater than -0.5 for this molecule? O=C(CSc1nnc(-c2ccccc2Cl)n1Cc1ccco1)Nc1ccc2c(c1)OCCO2
[A] fulfilled

[Q] Is the recorded value of fluorescence slope equal to or greater than -0.5 for this molecule? CCOc1ccccc1N1CCN(S(=O)(=O)c2cccc3nsnc23)CC1
[A] fulfilled

[Q] Is the recorded value of fluorescence slope equal to or greater than -0.5 for this molecule? COc1ccccc1S(=O)(=O)Cc1ccc(C(=O)N2CCOCC2)o1
[A] fulfilled

[Q] Is the recorded value of fluorescence slope equal to or greater than -0.5 for this molecule? CC(=O)Nc1ccc(S(=O)(=O)n2nc(C)cc2C)cc1
[A] not fulfilled

[Q] Is the recorded value of fluorescence slope equal to or greater than -0.5 for this molecule? CCOC(=O)c1ccc(NC2OC(=O)c3ccccc32)cc1 (stereo unspecified)
[A] fulfilled

[Q] Is the recorded value of fluorescence slope equal to or greater than -0.5 for this molecule? CCOC(=O)c1c(-c2ccc(C)o2)csc1NC(=O)CN1CCN(CC)CC1
[A] fulfilled

[Q] Is the recorded value of fluorescence slope equal to or greater than -0.5 for this molecule? O=C(NCCN1CCOCC1)c1ccc2c(c1)N(Cc1ccccc1F)C(=O)CS2
[A] fulfilled

[Q] Is the recorded value of fluorescence slope equal to or greater than -0.5 for this molecule? CCSC1=NCN(CCCC(=O)O)CN1
[A] not fulfilled

[Q] Is the recorded value of fluorescence slope equal to or greater than -0.5 for this molecule? CCN(CC)CCOC(=O)c1cccc(OC)c1
[A] not fulfilled

[Q] Is the recorded value of fluorescence slope equal to or greater than -0.5 for this molecule? Cc1ccc(-c2cc(C(=O)NCc3ccc4c(c3)OCO4)no2)cc1
[A] fulfilled

[Q] Is the recorded value of fluorescence slope equal to or greater than -0.5 for this molecule? c1cncc(-c2nnc(SCCSc3nnc(-c4cccnc4)o3)o2)c1
[A] fulfilled

[Q] Is the recorded value of fluorescence slope equal to or greater than -0.5 for this molecule? CCOC(=O)N1CCN(c2cc3nccnc3cc2F)CC1
[A] fulfilled

[Q] Is the recorded value of fluorescence slope equal to or greater than -0.5 for this molecule? COc1cc(CC(=O)NCc2ccc3c(c2)OCO3)cc(OC)c1OC
[A] not fulfilled
